# Test system: COR-L23
# Assay comment: relative viability (nuclei count vs DMSO), 5 days (fraction); higher = more cells survive
# Recorded conditions: first compound 0.05 µM
Measurement kind: relative viability
Reply with the value as a number alone.

The following compounds have reported results that may help.
Nc1ccn([C@@H]2O[C@H](CO)[C@@H](O)[C@@H]2O)c(=O)n1 [Cytarabine] + O=C(c1cc(Cc2n[nH]c(=O)c3ccccc23)ccc1F)N1CCN(C(=O)C2CC2)CC1 [Olaparib] (partner 8 µM) | 0.275
Nc1ccn([C@@H]2O[C@H](CO)[C@@H](O)[C@@H]2O)c(=O)n1 [Cytarabine] + CS(=O)(=O)CCNCc1ccc(-c2ccc3ncnc(Nc4ccc(OCc5cccc(F)c5)c(Cl)c4)c3c2)o1 [Lapatinib] (partner 2 µM) | 0.921
Nc1ccn([C@@H]2O[C@H](CO)[C@@H](O)[C@@H]2O)c(=O)n1 [Cytarabine] + C[C@@H](Oc1cc(-c2cnn(C3CCNCC3)c2)cnc1N)c1c(Cl)ccc(F)c1Cl [Crizotinib] (partner 1 µM) | 0.405

Q. For COc1cc2nccc(Oc3ccc(NC(=O)Nc4cc(C)on4)c(Cl)c3)c2cc1OC [Tivozanib] + Cc1nc(Nc2ncc(C(=O)Nc3c(C)cccc3Cl)s2)cc(N2CCN(CCO)CC2)n1 [Dasatinib] (partner 0.075 µM) , what is its reported relative viability?
A. 0.462

Q. What do you have for Nc1ccn([C@@H]2O[C@H](CO)[C@@H](O)[C@@H]2O)c(=O)n1 [Cytarabine] + O=C(CCCCCCC(=O)Nc1ccccc1)NO [Vorinostat] (partner 1 µM) ?
A. 0.304

Q. What do you have for Nc1ccn([C@@H]2O[C@H](CO)[C@@H](O)[C@@H]2O)c(=O)n1 [Cytarabine] + CC(=O)c1c(C)c2cnc(Nc3ccc(N4CCNCC4)cn3)nc2n(C2CCCC2)c1=O [Palbociclib] (partner 0.5 µM) ?
A. 0.176

Q. What do you have for COc1cc2nccc(Oc3ccc(NC(=O)Nc4cc(C)on4)c(Cl)c3)c2cc1OC [Tivozanib] + CCNC(=O)c1noc(-c2cc(C(C)C)c(O)cc2O)c1-c1ccc(CN2CCOCC2)cc1 [Luminespib] (partner 0.01 µM) ?
A. 0.748

Q. What do you have for Nc1ccn([C@@H]2O[C@H](CO)[C@@H](O)[C@@H]2O)c(=O)n1 [Cytarabine] + COc1cccc2cc(-c3nc([C@H]4CC[C@H](C(=O)O)CC4)n4ncnc(N)c34)[nH]c12 [OSI-027] (partner 0.5 µM) ?
A. 0.546

---

Below, each of the compounds is paired with its reported relative viability value.
# Test system: A549
# Assay comment: relative viability (nuclei count vs DMSO), 5 days (fraction); higher = more cells survive
# Recorded conditions: first compound 1.265 µM

The following compounds have reported results that may help.
Cc1sc2c(c1C)C(c1ccc(Cl)cc1)=N[C@@H](CC(=O)OC(C)(C)C)c1nnc(C)n1-2 [JQ1] + CS(=O)(=O)CCNCc1ccc(-c2ccc3ncnc(Nc4ccc(OCc5cccc(F)c5)c(Cl)c4)c3c2)o1 [Lapatinib] (partner 2 µM) | 0.553
Cc1sc2c(c1C)C(c1ccc(Cl)cc1)=N[C@@H](CC(=O)OC(C)(C)C)c1nnc(C)n1-2 [JQ1] + N=C(N)NC(=N)NCCc1ccccc1 [Phenformin] (partner 250 µM) | 0.182
Cc1sc2c(c1C)C(c1ccc(Cl)cc1)=N[C@@H](CC(=O)OC(C)(C)C)c1nnc(C)n1-2 [JQ1] + C[C@]1(O)C[C@@H](c2nc(-c3ccc4ccc(-c5ccccc5)nc4c3)c3c(N)nccn32)C1 [Linsitinib] (partner 1 µM) | 0.314

Next up:
Q. For Cc1sc2c(c1C)C(c1ccc(Cl)cc1)=N[C@@H](CC(=O)OC(C)(C)C)c1nnc(C)n1-2 [JQ1] + CS(=O)(=O)N1CCN(Cc2cc3nc(-c4cccc5[nH]ncc45)nc(N4CCOCC4)c3s2)CC1 [Pictilisib] (partner 1 µM) , what is its reported relative viability?
A. 0.253
